# Protocol text: binders from COS7 lysate, DM2A8 probe, primary screen, torsin A project, cell lysate, small-molecule microarray, fluorescence 635/667 (AID 1065)
# Condition label: higher = more signal, COS7 lysate expressing mutant human TOR1A
Is composite z-score at least 0.2? Then rule met. If not, rule not met.

Below are worked cases with known answers.
Compound: C[C@]1(C(=O)NC2CC2)c2ccccc2C(=O)N(Cc2cc(F)cc(C(F)(F)F)c2)[C@H]1c1ccc(CO)cc1
Class name: rule not met
//
Compound: CCCCC(=C=CC[C@H](O)c1cccc(OCCO)c1)C[C@H](O)c1cc(Cl)cc(Cl)c1O
Class name: rule not met
//
Compound: CC(C)c1ccc(NN2C(C(O)c3ccccc3)C=CC3C(=O)N(c4ccccc4)C(=O)C32)cc1 (configuration not stated)
Class name: rule not met
//
Compound: O=C1C[C@@](C(=O)NCC(F)(F)F)(c2ccc([N+](=O)[O-])cc2)[C@@H](c2ccc(CO)cc2I)N1CC12CC3CC(CC(C3)C1)C2
Class name: rule not met
//
Compound: COC(=O)C(CC#Cc1ccc2c(c1)[C@]1(C(=O)N2)[C@H](C(N)=O)[C@H]2C(=O)O[C@H](c3ccccc3)[C@H](c3ccccc3)N2[C@@H]1c1ccccc1OCCO)C(=O)OC
Class name: rule met
//
Compound: CC1CC/C=C\[C@H]2OC34C=CCN(CCN5CCOCC5)C(=O)[C@H]3N(C(CO)C(C)C)C(=O)[C@@H]4C2C(=O)O1 (some centres not stated)
Class name: rule met

Exercise: Hi team, for CC(C)C[C@@H]1NC(=O)[C@@H]2C[C@H](C(=O)NCCCCCCNC(=O)CS)[C@H](c3ccc(O)cc3)N2C1=O , is the recorded composite z-score at or above 0.2?
Key: rule met

Exercise: Hi team, for COCCCNC(=O)[C@@]1(CCC(=O)OC(C)(C)C)N=C(c2ccc(OCCCO)cc2)O[C@H]1c1ccccc1 , is the recorded composite z-score at or above 0.2?
Key: rule met

Exercise: Hi team, for CCCCCCc1nc(Cc2cc(OC)c(OC)c(OC)c2)c(C)c2c1[Si](C(C)C)(C(C)C)OC2 , is the recorded composite z-score at or above 0.2?
Key: rule not met

Exercise: Hi team, for COC(=O)c1ccc(OC)c(/C=C\CC(OC(=O)c2ccncc2)c2ccccc2)c1 (configuration not stated) , is the recorded composite z-score at or above 0.2?
Key: rule met

Exercise: Hi team, for O=C1N(Cc2ccccc2)Cc2ccccc2C[C@@]12COC(c1ccc(OCCCO)cc1)=N2 , is the recorded composite z-score at or above 0.2?
Key: rule met

Exercise: Hi team, for C=CC[C@]1(C(=O)NCC(O)CO)N=C(c2ccc(OCCCO)cc2)O[C@H]1c1ccccc1CN=[N+]=[N-] (some centres not stated) , is the recorded composite z-score at or above 0.2?
Key: rule met

Exercise: Hi team, for COCCOC(=O)N1C(=O)[C@@]2(c3cc(C#CCC(C(=O)OC)C(=O)OC)ccc31)[C@H](C(=O)N1CCc3cc(OC)c(OC)cc3C1)[C@H]1C(=O)O[C@H](c3ccccc3)[C@H](c3ccccc3)N1[C@@H]2c1ccccc1OCCO , is the recorded composite z-score at or above 0.2?
Key: rule met

Exercise: Hi team, for CCOC(=O)C=C1C[C@@H](c2cccc([N+](=O)[O-])c2)O[C@@H](c2cccc([N+](=O)[O-])c2)O1 , is the recorded composite z-score at or above 0.2?
Key: rule not met

Exercise: Hi team, for [N-]=[N+]=Nc1ccccc1C[C@@]1(C(=O)NCc2ccccc2)N=C(c2ccc(OCCCO)cc2)O[C@@H]1c1ccccc1 , is the recorded composite z-score at or above 0.2?
Key: rule met

Exercise: Hi team, for CO[C@H]1O[C@H](CO)[C@@H](OC(=O)Nc2ccccc2)[C@@H]2OC(=O)[C@@H](Cc3ccccc3)C/C=C/C[C@H](Cc3ccccc3)C(=O)O[C@@H]12 , is the recorded composite z-score at or above 0.2?
Key: rule met

Exercise: Hi team, for CC[C@H]1C2=C3C(CC[C@H]4C(OCc5ccc(F)cc5C(F)(F)F)OC[C@](C)([C@@H]34)N(C(=O)OC(C)(C)C)C2)C(COC(C)=O)C1COC(C)=O (some centres not stated) , is the recorded composite z-score at or above 0.2?
Key: rule not met

Exercise: Hi team, for CC(C)C[C@@H]1NC(=O)[C@H]2C[C@@H](C(=O)O)[C@@H](c3cccc(OCCO)c3)N2C1=O , is the recorded composite z-score at or above 0.2?
Key: rule met

Exercise: Hi team, for CCCCCCCCCCC(O)C1C=CC2C(=O)N(C)C(=O)C2N1Nc1ccccc1 (configuration not stated) , is the recorded composite z-score at or above 0.2?
Key: rule not met
